Target or system: T1, influenza A minimal peptide VPNGTLVKTITNDQI (spotted for dot blot) (Influenza A virus (H3 hemagglutinin …))
T1 chain: VPNGTLVKTITNDQI
Property: binding result

Looking for the measured binding result of clonotype473 (10x_4) (antibody, V domains shown) VH: EVQLVQSGAEVKKPGESLRISCKGSGYTFSTHWIGWVRHMPGKGLEWVGVIYPDDSDTRLSPSFQGQVTISADKSTTTAFLWWSSLKASDTATYYCARGVQSCIRNTCSFYGWFDRWGQGTRVTVSS VL: DIVMTQSPDSLAVSLGERATIYCKSSHSLLYSSNNYNYLAWYQQKPGQPPKLLIYWASTRESGVPDRFSGSGSGTDFTLTISSLQAADVAVYYCQQYFYSPYTFGQGTKVEIR , can you help?
binds

Same lookup for clonotype2760 (Quake) (antibody, V domains shown) VH: EVQLVQSEIEVRKPGESLKISCKGSGYNFATHWIGWVRQMPGKGLEWMGTIYPLDSDTRYSPYFQGQVTISADKSINTAYLQWNSLKASDTAMYYCARVPEGSVVAGEVHFYYYMDVWGKGTAVTVSS VL: DIVMTQSPDSLAVSLGERATINCKSSQSLLYSSNNRNYLAWYQHKPGQPPKLLMYWASTRESGVPDRFSGGGSETDFTLTISSLQAEDVAMYYCQQYYFTPYTFGQGTKLEIK , please.
binds

Same lookup for clonotype4582 (Quake) (antibody, V domains shown) VH: EVQLVQSGAEVKKPGESLKISCKASGYTFTNYWIAWVRQMPGKGLEWMGIIFPSDSDTRYSPSFQGQVTISADKSVSTAYLQWSSLKASDTAMYYCARGAATILRGVVTSYNWFDSWGQGTLVTVSS VL: DVVMTQSPDSLAASLGERATINCTSSHNILYNSNNNNYLAWYQQKPGQPPKLLIYWASTRESGVPDRFSGSGSGTDFTLTISSLQAEDVAVYSCQQYFSTPYTFGQGTKLEIK , please.
binds

Same lookup for flu_c504 (antibody, V domains shown) VH: EVQLVQSGAEVKKPGESLKISCKASGYTFTRYWIAWVRQMPGKGLEWMGIIYPGDSDTRYNPSFQGQVTISADKSINTAYLQWSSLKASDTAIYYCAMCVGSPTCYGWFDPWGQGTLVTVSS VL: DIVMTQSPDSLAVSLGERATINCKSSLNILYSSNKKNYLAWYQQKPGQPPKLLIYWASTRESGVPDRFSGSGSGTDFTLTISSLQAEDVAVYYCQQYHSIPYTFGQGSKLEIK , please.
binds
